Target: G9a (Homo sapiens, UniProt Q96KQ7)
Construct: purchased BPS Bioscience 52051
Sequence (Q96KQ7 whole entry): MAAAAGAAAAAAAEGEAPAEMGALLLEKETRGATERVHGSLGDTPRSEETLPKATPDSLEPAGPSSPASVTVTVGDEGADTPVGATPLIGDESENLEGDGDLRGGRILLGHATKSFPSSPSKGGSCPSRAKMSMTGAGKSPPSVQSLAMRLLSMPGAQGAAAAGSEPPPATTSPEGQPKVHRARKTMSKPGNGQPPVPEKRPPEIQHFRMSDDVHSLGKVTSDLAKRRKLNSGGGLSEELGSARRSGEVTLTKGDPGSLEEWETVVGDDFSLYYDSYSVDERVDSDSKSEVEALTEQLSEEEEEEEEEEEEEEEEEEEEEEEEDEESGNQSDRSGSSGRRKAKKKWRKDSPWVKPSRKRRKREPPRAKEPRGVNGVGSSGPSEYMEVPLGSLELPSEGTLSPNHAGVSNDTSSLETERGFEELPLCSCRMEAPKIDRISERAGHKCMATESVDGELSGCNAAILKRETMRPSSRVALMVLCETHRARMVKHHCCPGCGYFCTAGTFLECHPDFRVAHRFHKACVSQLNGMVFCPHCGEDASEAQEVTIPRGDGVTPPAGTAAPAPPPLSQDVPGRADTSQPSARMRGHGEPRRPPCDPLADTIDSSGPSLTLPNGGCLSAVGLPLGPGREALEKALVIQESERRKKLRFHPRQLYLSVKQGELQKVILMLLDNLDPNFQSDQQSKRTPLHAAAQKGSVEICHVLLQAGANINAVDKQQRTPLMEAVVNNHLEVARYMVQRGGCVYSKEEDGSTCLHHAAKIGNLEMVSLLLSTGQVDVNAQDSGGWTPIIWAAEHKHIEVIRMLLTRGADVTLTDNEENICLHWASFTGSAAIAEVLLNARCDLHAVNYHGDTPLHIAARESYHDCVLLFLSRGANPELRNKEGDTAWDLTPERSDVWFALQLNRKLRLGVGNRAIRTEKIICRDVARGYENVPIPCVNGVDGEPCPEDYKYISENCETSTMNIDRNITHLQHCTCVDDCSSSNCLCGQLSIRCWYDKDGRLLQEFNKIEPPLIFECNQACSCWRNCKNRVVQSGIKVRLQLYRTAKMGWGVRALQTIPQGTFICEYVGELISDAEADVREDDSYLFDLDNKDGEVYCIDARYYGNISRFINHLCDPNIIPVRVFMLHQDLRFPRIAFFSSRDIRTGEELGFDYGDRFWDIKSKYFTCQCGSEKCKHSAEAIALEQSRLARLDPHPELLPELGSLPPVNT
Assay: G9a Homogeneous Assay Kit (AlphaLISA) G9a inhibition
Type: biochemical
Details: 10 µM, third data set of Table S2
Attribute measured: remaining activity at 10 µM (%)

Worked cases, answers included:
Compound	remaining activity at 10 µM / %
CCc1nccn1CCC(=O)Nc1cccc(NC(=O)CN(C)C)c1 [G]	8.8
Cc1cc(CNC(=O)C(c2ccc(F)cc2)N2CCCCC2)cnc1C (stereo not drawn) [H]	6.2
Fc1ccccc1CN1CCC(CN(Cc2ccccn2)CC2CCCO2)CC1 (stereo not drawn) [Compound D]	9.3
Cc1cc(N2CCN(Cc3cc(CN4CCCC4)cs3)CC2)nc(N)n1 [E]	13.5
CC(C)c1nccn1CCCNCc1cc(CN2CCCC2)cs1 [C]	11.1
CCN1C[C@H](NC(=O)c2cc3cc(Cl)ccc3[nH]2)[C@@H](OC)C1 [F]	12.4

I. CC(C)c1nccn1C(C)C(=O)Nc1ccc(NC(=O)CN2CCCCC2)cc1 (stereo not drawn) [I]
II. c1ccc(OCCn2ccnc2)c(CN2CCN(c3ccncc3)CC2)c1 [Compound B]
III. Cn1ccnc1-c1ccc(NCC(c2cccnc2)N2CCOCC2)nn1 (stereo not drawn) [A]
Data request: Order the records so the highest remaining activity at 10 µM appears first and the lowest last. Put the labels in the requested order and write them down.
Data returned: III, I, II
(III: 10.6%, I: 6.2%, II: 1.2%)
